target: RPS10 (UniProt P46783); assay: EC50 of free RNA motif oligo competing protein binding to immobilised probe
reported metric: EC50 (nM)

input_sequence=CUGUCCU reported_metric=EC50 unit_of_measurement=nM quantitative_readout=226

----------
Reported values of pEC50 for individual entries
Biological target: RBM17 (UniProt Q96I25)
Sequence: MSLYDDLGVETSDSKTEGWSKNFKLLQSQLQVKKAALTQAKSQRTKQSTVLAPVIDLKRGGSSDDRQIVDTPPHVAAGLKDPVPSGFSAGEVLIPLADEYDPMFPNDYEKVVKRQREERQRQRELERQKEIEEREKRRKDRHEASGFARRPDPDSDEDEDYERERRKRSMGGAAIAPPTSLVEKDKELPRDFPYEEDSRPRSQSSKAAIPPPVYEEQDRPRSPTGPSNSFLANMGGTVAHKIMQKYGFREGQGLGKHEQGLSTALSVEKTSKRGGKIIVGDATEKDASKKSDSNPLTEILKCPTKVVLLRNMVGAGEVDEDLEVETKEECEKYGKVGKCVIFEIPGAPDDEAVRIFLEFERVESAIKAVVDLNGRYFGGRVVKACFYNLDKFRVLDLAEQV
Assay: EC50 of free RNA motif oligo competing protein binding to immobilised probe
pEC50: −log10 of the molar value.
reported metric: pEC50

input_sequence=UAUUUAU reported_metric=pEC50 quantitative_readout=7.03
input_sequence=AAUAAA reported_metric=pEC50 quantitative_readout=5.60
